Exercise: for every item that follows, state its recorded abundance fitness.
B1: Ankyrin-3, residues 4094 to 4171; numbered along this chain, Q12955 (parent)
chain: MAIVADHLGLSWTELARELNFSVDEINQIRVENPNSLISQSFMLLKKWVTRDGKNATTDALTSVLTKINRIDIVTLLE

- Variants of: B1
- test: abundance fitness (aPCA) (normalised: wild type 0, dead -1); higher = more abundant; growth selection in yeast, the domain comes from the species named
- testContext: Homo sapiens
Output: the number by itself.

The recorded abundance fitness for entry Q28F equals -0.479

Quick note, abundance fitness for K54V landed at 0.038

Entry G53D ; abundance fitness = -0.578

# abundance fitness (variant: D6G ) is -0.156

Measured abundance fitness of L61F : -0.823

Quick note, abundance fitness for N69D landed at -0.178

Field abundance fitness (entry F42G ) reads 0.113

Summary for this variant, N20C : abundance fitness is -0.348

The recorded abundance fitness for entry T62H equals -0.297

abundance fitness measured on A16R = -0.893

get_value(item= E14W , readout=abundance fitness) returns -0.469

Entry P34F ; abundance fitness = -0.479

variant I26P , abundance fitness observed: -0.894

Value of abundance fitness reported for the variant I73S is -0.849

Short answer for K54L : abundance fitness was -0.051

Please fill in: abundance fitness reported for R17S = -0.08

Field abundance fitness (entry E78S ) reads -0.089

Memo: N69E , reported abundance fitness: -0.032

Item: L45G | abundance fitness: -0.906

Memo: K47Y , reported abundance fitness: -0.39

According to the records, this variant R17C displays abundance fitness of -0.076

abundance fitness recorded for this variant, F21V , is -0.81

Input E14P . Output abundance fitness: -0.583

Please fill in: abundance fitness reported for T75W = -0.189

Measured abundance fitness of K46Y : -0.665

Field abundance fitness (entry E18R ) reads -1.09

# variant F42N ; its abundance fitness = 0.104

Quick note, abundance fitness for N20P landed at -1

Briefly, abundance fitness measured for I38G : -0.006

The variant listed as L76N shows abundance fitness equal to -0.292

Sure, the documented abundance fitness for A60S is -0.134

Briefly, abundance fitness measured for T75L : 0.006

Reported abundance fitness ( L10S ) = 0.081

get_value(item= L77Q , readout=abundance fitness) returns -0.805

Looking up E32Q , I see its abundance fitness listed as -0.1

In plain terms, I29F has a documented abundance fitness of -0.765

GET /value?item= L65Y &field=abundance fitness returns -0.737

# abundance fitness of R30E = -0.088

The value of abundance fitness measured for the variant N20D turned out to be 0.093

Reported abundance fitness ( L37N ) = -0.359

Kindly note the recorded abundance fitness for L19V , which is -0.651

variant I73A , abundance fitness observed: -0.631

Entry under test: A5V . Its abundance fitness was -0.484

The variant listed as A16S has a reported abundance fitness of -0.907

Form field abundance fitness, entry L37P : -0.089

Reported abundance fitness ( V4P ) = -0.921
